target: T1, CD47 on the surface of CD47+ cells (human, UniProt Q08722 19-323); experiment: flow cytometry, competition with SIRPA-mIgG2a on CD47+ tumor cells; IC50 as grade, legend the 8th table, row 26
T1 construct: whole, on cells; also called CD47+ cell lines; CD47 on Raji cells, HCT-15 cells, human red blood cells (RBCs), human platelets
readout_name: IC50

binder	IC50
R.15G10 (antibody, human IgG1, kappa, V domains shown, Chimeric: rabbit variable domains, human IgG1 and human kappa constant regions) VH: QSLEESGGRLVTPGTPLTLTCTASGFTISSYHMNWVRQAPGEGLEWIGIIYVGSGNADYASWAKGRFTISKASTTVDLKITSPTTEDTATYFCARGPTNTYPTYFNLWGPGTLVTVSS VL: AFELTQTPSSVEAAVGGTVTIKCQASRSITSYLAWYQHKPGQPPTLLIYAASNVASGVSSRFKGSRSGTEYTLTISDLESADAATYYCQSYYAISTNTFGGGTEVVVKR	0.1 to 1 nM
M.95D4A11 (antibody, human IgG1, kappa, V domains shown, Chimeric: mouse variable domains, human IgG1 and human kappa constant regions) VH: QVQLQQPGAELVRPGASVKLSCKASGYTFTSYWMNWVKQRPEQGLEWIGSIDPYDSETHYNQKFKDKAILTVDKSSSTAYMQLSSLTSEDSAVYYCARGRGYAMDYWGQGTSVTVSS VL: DIQMTQSPASLSASVGETVTITCRASGNIHNYLAWYQQKQGKSPQLLVYNAKTLADGVPSRFSGSGSGTQYSLKINSLQPEDFGSYYCQHFWSTPPTFGGGTKLEIKR	0.1 to 1 nM
R.9B11 (antibody, human IgG1, kappa, V domains shown, Chimeric: rabbit variable domains, human IgG1 and human kappa constant regions) VH: QEQLEESGGDLVKPEGSLTLTCTASGFSFSSYWMAWVRQAPGKGLEWIACIYIGSGSGTTYYASWAKGRFTISKTSSTTVTLQMTSLTAADTAIYFCARWAGSDGHFTLWGPGTLVTVSL VL: ALVMTQTPASVEAAVGGTVTINCQASQSINNLLAWYQQKPGQRPKLLIYDASDLASGVSSRFKGSGSGTEYTLTISGVQSADAATYYCQGYFYGSSVDLVFGGGTEVVVKR	1 to 5 nM

The measured IC50 associated with M.1D15E11 (antibody, human IgG1, kappa, V domains shown, Chimeric: mouse variable domains, human IgG1 and human kappa constant regions; also called Chimeric antibody 1D15E11) VH: EVQLQQSGPELVKPGAPVKMSCKASGYTFTSYVMHWVKQKPGQGLEWIGYIDPYNDGTKYNEKFKGKATLTSDKSSSTAYMELSSLTSEDSAVYYCSRGGMARRSFDYWGQGTTLTVSS VL: DIQMTQSPASQSASLGESVTITCLASQTIGTWLTWYQQKPGKSPQLLIYAATTLADGVPSRFSGSGSGTKFSFKISSLQAEDFVSYYCQQLYSTPWTFGGGTKLEIKR reads 0.1 to 1 nM

Each recorded value in this set is attributed to patent US20240174750A1.
